target: Polyunsaturated fatty acid 5-lipoxygenase (Mus musculus) (UniProt P48999); test: In vivo inhibition of 5-lipoxygenase (LTC4) in the mouse zymosan peritonitis assay at an oral dose of 30 mg/Kg; type: functional, organism-based
Sequence (P48999 whole entry): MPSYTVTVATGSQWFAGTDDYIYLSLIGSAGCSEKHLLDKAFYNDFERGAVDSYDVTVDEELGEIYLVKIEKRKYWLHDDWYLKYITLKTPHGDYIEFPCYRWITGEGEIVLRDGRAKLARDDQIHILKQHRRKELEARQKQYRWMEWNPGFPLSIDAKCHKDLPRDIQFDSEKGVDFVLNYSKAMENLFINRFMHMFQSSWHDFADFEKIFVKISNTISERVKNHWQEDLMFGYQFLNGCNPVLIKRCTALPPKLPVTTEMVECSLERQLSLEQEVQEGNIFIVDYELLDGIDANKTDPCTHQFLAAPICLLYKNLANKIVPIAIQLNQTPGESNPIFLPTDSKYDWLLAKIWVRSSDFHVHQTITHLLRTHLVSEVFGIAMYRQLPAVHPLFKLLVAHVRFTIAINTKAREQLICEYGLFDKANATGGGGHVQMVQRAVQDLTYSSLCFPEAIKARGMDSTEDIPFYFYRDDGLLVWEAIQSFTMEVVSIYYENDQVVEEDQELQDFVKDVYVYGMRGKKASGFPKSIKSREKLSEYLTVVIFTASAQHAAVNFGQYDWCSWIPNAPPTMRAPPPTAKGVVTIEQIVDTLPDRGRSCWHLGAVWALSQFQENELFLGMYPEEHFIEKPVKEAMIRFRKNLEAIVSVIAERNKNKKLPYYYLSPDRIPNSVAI
ENDPOINT: inhibition (%)

[
  {
    "COMPOUND": "CC(c1ccc2oc(-c3ccccc3)cc2c1)N(O)C(=O)c1cccs1 (stereo unspecified)",
    "ASSAYED TARGET": "Polyunsaturated fatty acid 5-lipoxygenase (Mus musculus) (UniProt P48999)",
    "inhibition [%]": 29.1
  },
  {
    "COMPOUND": "CCCCc1cc2cc(C(C)N(O)C(=O)CCCC(=O)OC)ccc2o1 (stereo unspecified)",
    "ASSAYED TARGET": "Polyunsaturated fatty acid 5-lipoxygenase (Mus musculus) (UniProt P48999)",
    "inhibition [%]": 28.6
  },
  {
    "COMPOUND": "CC(=O)OCC(=O)N(O)C(C)c1ccc2oc(-c3ccccc3)cc2c1 (stereo unspecified)",
    "ASSAYED TARGET": "Polyunsaturated fatty acid 5-lipoxygenase (Mus musculus) (UniProt P48999)",
    "inhibition [%]": 18.9
  },
  {
    "COMPOUND": "COC(=O)CCCC(=O)N(O)C(C)c1ccc2oc(-c3cc(OC)c(OC)c(OC)c3)cc2c1 (stereo unspecified)",
    "ASSAYED TARGET": "Polyunsaturated fatty acid 5-lipoxygenase (Mus musculus) (UniProt P48999)",
    "inhibition [%]": 42.1
  },
  {
    "COMPOUND": "CCCCCCCCCCc1cc2cc(C(C)N(O)C(=O)CCCC(=O)OC)ccc2o1 (stereo unspecified)",
    "ASSAYED TARGET": "Polyunsaturated fatty acid 5-lipoxygenase (Mus musculus) (UniProt P48999)",
    "inhibition [%]": 37.3
  }
]

(1) CC(c1ccc2oc(-c3ccccc3)cc2c1)N(O)C(=O)c1ccco1 (stereo unspecified)
(2) CCCCCCCCCCc1cc2cc(C(C)N(O)C(C)=O)ccc2o1 (stereo unspecified)
Query: Name the one with the greater inhibition value, either 1 or 2 as given. Record your answer as the label of the chosen record.
Reply: 1

(1) COc1cc(-c2cc3cc(C(C)N(O)C(C)=O)ccc3o2)cc(OC)c1OC (stereo unspecified)
(2) COc1ccc2cc(-c3cc4cc(C(C)N(O)C(C)=O)ccc4o3)ccc2c1 (stereo unspecified)
Query: Name the one with the greater inhibition value, either 1 or 2 as given. Record your answer as the label of the chosen record.
Reply: 1
(1: 42.1%, 2: 25.6%)

###

target: Polyunsaturated fatty acid 5-lipoxygenase (Rattus norvegicus, UniProt P12527); test: In vitro inhibition of 5-lipoxygenase (5-HETE) derived from the 9000xg supernatant of RBL broken cell assay
Sequence (P12527 whole entry): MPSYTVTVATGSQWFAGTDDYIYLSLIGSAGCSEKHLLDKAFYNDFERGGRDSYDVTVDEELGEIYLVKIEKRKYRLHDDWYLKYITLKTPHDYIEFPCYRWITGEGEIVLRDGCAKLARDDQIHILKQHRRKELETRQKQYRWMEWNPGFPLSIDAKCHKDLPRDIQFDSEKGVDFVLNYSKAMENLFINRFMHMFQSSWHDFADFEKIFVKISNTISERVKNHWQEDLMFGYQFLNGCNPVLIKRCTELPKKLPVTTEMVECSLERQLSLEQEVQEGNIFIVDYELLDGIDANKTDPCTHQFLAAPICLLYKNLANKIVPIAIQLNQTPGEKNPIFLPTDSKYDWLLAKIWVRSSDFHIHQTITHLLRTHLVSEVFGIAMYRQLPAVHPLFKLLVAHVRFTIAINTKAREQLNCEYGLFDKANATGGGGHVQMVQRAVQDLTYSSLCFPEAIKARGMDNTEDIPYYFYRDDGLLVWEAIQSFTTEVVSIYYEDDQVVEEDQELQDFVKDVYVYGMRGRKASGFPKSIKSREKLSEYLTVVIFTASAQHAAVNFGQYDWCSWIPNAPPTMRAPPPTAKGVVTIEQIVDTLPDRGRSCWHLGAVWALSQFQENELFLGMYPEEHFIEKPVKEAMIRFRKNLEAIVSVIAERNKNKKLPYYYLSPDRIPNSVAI
ENDPOINT: IC50 (nM)

[
  {
    "MOLECULE": "CC(c1ccc2oc(-c3ccccc3)cc2c1)N(O)C(=O)CO (stereo not given)",
    "MEASUREMENT UNITS": "nM",
    "MEAS VALUE": 700
  },
  {
    "MOLECULE": "CCCCc1cc2cc(C(C)N(O)C(=O)CCCC(=O)OC)ccc2o1 (stereo not given)",
    "MEASUREMENT UNITS": "nM",
    "MEAS VALUE": 50
  },
  {
    "MOLECULE": "CCCCc1cc2cc(C(C)N(O)C(C)=O)ccc2o1 (stereo not given)",
    "MEASUREMENT UNITS": "nM",
    "MEAS VALUE": 50
  },
  {
    "MOLECULE": "COc1cccc(OC)c1C(=O)N(O)C(C)c1ccc2oc(-c3ccccc3)cc2c1 (stereo not given)",
    "MEASUREMENT UNITS": "nM",
    "MEAS VALUE": 3000
  },
  {
    "MOLECULE": "CC(c1ccc2oc(-c3ccccc3)cc2c1)N(O)C(N)=O (stereo not given)",
    "MEASUREMENT UNITS": "nM",
    "MEAS VALUE": 410
  },
  {
    "MOLECULE": "COc1ccc2cc(-c3cc4cc(C(C)N(O)C(C)=O)ccc4o3)ccc2c1 (stereo not given)",
    "MEASUREMENT UNITS": "nM",
    "MEAS VALUE": 120
  },
  {
    "MOLECULE": "COc1cc(-c2cc3cc(C(C)N(O)C(N)=O)ccc3o2)cc(OC)c1OC (stereo not given)",
    "MEASUREMENT UNITS": "nM",
    "MEAS VALUE": 50
  },
  {
    "MOLECULE": "COCC(=O)N(O)C(C)c1ccc2oc(-c3ccccc3)cc2c1 (stereo not given)",
    "MEASUREMENT UNITS": "nM",
    "MEAS VALUE": 160
  }
]

(a) COc1cc(-c2cc3cc(C(C)N(O)C(C)=O)ccc3o2)cc(OC)c1OC (stereo not given)
(b) CC(=O)N(O)C(C)c1ccc2oc(-c3ccccc3)cc2c1 (stereo not given)
Query: Name the one with the greater IC50 value, either a or b as given. Record your answer as the label of the chosen record.
Reply: b
(b: 490 nM, a: 310 nM)

(a) COC(=O)CCCC(=O)N(O)C(C)c1ccc2oc(-c3cc(OC)c(OC)c(OC)c3)cc2c1 (stereo not given)
(b) COc1ccc(C(=O)N(O)C(C)c2ccc3oc(-c4ccccc4)cc3c2)cc1OC (stereo not given)
Query: Which has the smaller recorded IC50, a or b ? Record your answer as the label of the chosen record.
Reply: a
(a: 40 nM, b: 200 nM)

(I) CCOC(=O)CCC(=O)N(O)C(C)c1ccc2oc(-c3ccccc3)cc2c1 (stereo not given)
(II) CCCCCCCCCCc1cc2cc(C(C)N(O)C(=O)CCCC(=O)OC)ccc2o1 (stereo not given)
Query: Name the one with the greater IC50 value, either I or II as given. Record your answer as the label of the chosen record.
Reply: II
(II: 150 nM, I: 50 nM)

(A) CC(=O)OCC(=O)N(O)C(C)c1ccc2oc(-c3ccccc3)cc2c1 (stereo not given)
(B) COC(=O)CCCC(=O)N(O)C(C)c1ccc2oc(-c3ccccc3)cc2c1 (stereo not given)
Query: Name the one with the greater IC50 value, either A or B as given. Record your answer as the label of the chosen record.
Reply: A

(P) CC(c1ccc2oc(-c3ccccc3)cc2c1)N(O)C(=O)c1ccco1 (stereo not given)
(Q) CC(c1ccc2oc(-c3ccccc3)cc2c1)N(O)C(=O)c1cccs1 (stereo not given)
Query: Which has the smaller recorded IC50, P or Q ? Record your answer as the label of the chosen record.
Reply: P
(P: 40 nM, Q: 250 nM)
